Would you mind telling me the reported AC50 of each entry?
- tested-target: Muscarinic acetylcholine receptor M1 (Homo sapiens, UniProt P11229); note: assay procedure not described here
- Sequence (P11229 whole entry): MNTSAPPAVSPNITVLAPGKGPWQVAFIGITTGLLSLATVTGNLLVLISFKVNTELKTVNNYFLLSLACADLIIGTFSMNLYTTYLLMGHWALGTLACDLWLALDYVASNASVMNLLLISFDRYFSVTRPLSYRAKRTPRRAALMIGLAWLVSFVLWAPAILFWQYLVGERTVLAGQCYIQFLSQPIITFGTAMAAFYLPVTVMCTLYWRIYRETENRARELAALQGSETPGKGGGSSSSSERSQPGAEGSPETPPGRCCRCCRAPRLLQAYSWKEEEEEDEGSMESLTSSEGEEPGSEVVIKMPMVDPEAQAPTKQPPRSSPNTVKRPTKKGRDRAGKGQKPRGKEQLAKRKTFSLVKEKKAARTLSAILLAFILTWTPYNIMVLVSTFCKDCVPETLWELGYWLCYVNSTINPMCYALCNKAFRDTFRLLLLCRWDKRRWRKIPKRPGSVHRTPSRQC
- Type: functional

Sample answers from the record:
{"columns": ["molecule", "endpoint-value"],
 "data": [
  ["COC(=O)C1=C(C)NC(C)=C(C(=O)OC(C)C)C1c1cccc2nonc12 (stereo not drawn)", "> 30 µM"],
  ["N[C@@H](C(=O)N[C@@H]1C(=O)N2C(C(=O)O)=C(Cl)CS[C@H]12)c1ccccc1 [CEFACLOR ANHYDROUS]", "> 30 µM"],
  ["O=C(O)CCn1c2c(c3ccccc31)C[C@H](NS(=O)(=O)c1ccc(F)cc1)CC2", "> 10 µM"],
  ["C#C[C@]1(O)CC[C@H]2[C@@H]3CCC4=CCCC[C@@H]4[C@H]3CC[C@@]21C", "> 30 µM"],
  ["COC(=O)[C@H]1[C@@H](OC(=O)c2ccccc2)C[C@@H]2CC[C@H]1N2C", "> 30 µM"]
]}

Hi there! I need AC50 for each item below, if you can.
1. CN(C)C(=O)OC1N=C(c2ccccc2)c2cc(Cl)ccc2N(C)C1=O (stereo not drawn)
2. COC(=O)N[C@H](C(=O)N[C@@H](Cc1ccccc1)[C@@H](O)CN(Cc1ccc(-c2ccccn2)cc1)NC(=O)[C@@H](NC(=O)OC)C(C)(C)C)C(C)(C)C
3. CC(N)Cc1ccccc1 (stereo not drawn)
4. CS(=O)(=O)Nc1cc2occ(NC=O)c(=O)c2cc1Oc1ccccc1
5. CC(=O)N[C@H]1[C@H]([C@H](O)[C@H](O)CO)OC(C(=O)O)=C[C@@H]1N=C(N)N
6. CC(=O)N(CC(O)CO)c1c(I)c(C(=O)NCC(O)CO)c(I)c(C(=O)NCC(O)CO)c1I (stereo not drawn) [IOHEXOL]

OUTPUT:
1. > 10 µM
2. > 10 µM
3. > 30 µM
4. > 30 µM
5. > 30 µM
6. > 10 µM

Hi there! I need AC50 for each item below, if you can.
1. Cc1c(C(=O)Nc2ccc(N3C[C@@H](C)O[C@@H](C)C3)nc2)cccc1-c1ccc(OC(F)(F)F)cc1
2. C1=Cc2cccc(OCC3CNCCO3)c2C1 (stereo not drawn)

OUTPUT:
["> 10 µM", "> 30 µM"]
